Consider the following variants; for each one, report its yeast fitness.
B1: tRNA (parent)
chain: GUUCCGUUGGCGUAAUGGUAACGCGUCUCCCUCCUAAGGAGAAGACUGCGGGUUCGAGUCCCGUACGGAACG

# Variants of: B1
# test: yeast fitness relative to wild type (ratio to wild type); higher = fitter; tRNA-Arg(CCU), competitive growth, 37 C, YPD
Variants at the floor of the assay were thinned out.

These recorded examples may help you get a feel for the data.
- mutation annotation: "C4U G6A U8G C31U G63A"
  result: "≤ 0.5"
- mutation annotation: "A15C C33U A36U C66U"
  result: "≤ 0.5"

Please state yeast fitness for every variant in the list that follows.
1. U32G U35A A36G A57U
2. U3A U7A A43C G56A
3. U2G C5A A43U C55U G68A
4. U16G C30U C46G
5. C4U G12C U26G C55U A69C
6. A14C U28A A42U U54A

Outgoing:
1: ≤ 0.5; 2: ≤ 0.5; 3: ≤ 0.5; 4: 0.541; 5: 0.504; 6: ≤ 0.5

Please state yeast fitness for every variant in the list that follows.
1. C22U U28G A45G G67U
2. C27U A45G U53C
3. C49A A65C
4. C4U C24U U26C G68A
5. G12U A15G A20C C24G
6. U26C A43G

Outgoing:
1. ≤ 0.5
2. 0.544
3. 0.686
4. ≤ 0.5
5. ≤ 0.5
6. 1.01
